# target-or-test-system: VEGF-R2 (Rattus norvegicus, UniProt O08775)
# Construct: polyhistidine (N)
# Sequence (O08775 786-1343): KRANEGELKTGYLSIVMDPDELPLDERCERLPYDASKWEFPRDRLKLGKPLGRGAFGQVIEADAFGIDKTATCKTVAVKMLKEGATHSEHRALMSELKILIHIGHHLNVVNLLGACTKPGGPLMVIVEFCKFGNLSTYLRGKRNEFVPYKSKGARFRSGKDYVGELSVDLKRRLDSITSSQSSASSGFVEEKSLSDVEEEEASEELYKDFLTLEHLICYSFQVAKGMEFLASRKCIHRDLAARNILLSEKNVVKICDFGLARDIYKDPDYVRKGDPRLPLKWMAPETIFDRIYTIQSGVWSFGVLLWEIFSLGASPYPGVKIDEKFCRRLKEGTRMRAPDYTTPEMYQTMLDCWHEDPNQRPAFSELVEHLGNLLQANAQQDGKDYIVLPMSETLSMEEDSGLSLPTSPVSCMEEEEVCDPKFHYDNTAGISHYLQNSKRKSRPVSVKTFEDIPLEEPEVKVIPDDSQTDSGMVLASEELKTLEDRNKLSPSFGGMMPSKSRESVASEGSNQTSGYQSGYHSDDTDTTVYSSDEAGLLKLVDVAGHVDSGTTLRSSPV
# test: VEGF-R2 Screening Assay
# Type: biochemical
# test-context: 33P-γ-ATP incorporation, 10 μM ATP
Give IC50 for every item shown.
Write down the numeric answer in µM and omit the unit.

Query :: Name the recorded IC50 for FC(F)(F)c1ccccc1Nc1nccc(-c2c[nH]c3ncccc23)n1 .
Result :: 1.97

Query :: Recorded IC50 of Cc1cc(CCO)ccc1Nc1nccc(-c2c[nH]c3ncccc23)n1 , please.
Result :: 0.493

Query :: Tell me the measured IC50 of NC1CCN(c2nccc(-c3c[nH]c4ncccc34)n2)CC1 , please.
Result :: 2.67

* * *

# Test system: A375 malignant melanoma
# test: Inhibition of cell proliferation (14C-thymidine incorporation), A375
# Format: cell-based, human
# test-context: Homo sapiens, A-375
Define the label as True when IC50 is strictly less than 0.06 µM and as False in all remaining cases.

Query :: Is 0.06 µM strictly greater than the compound's reported IC50? compound: Oc1ccc(Nc2nccc(-c3c[nH]c4ncccc34)n2)cc1 [Cpd 39]
Result :: False

Query :: Here's an entry: Fc1ccccc1Nc1nccc(-c2c[nH]c3ncccc23)n1 [Cpd 31] . Is its IC50 below 0.06 µM?
Result :: False

Query :: IC50 strictly < 0.06 µM for this compound? NC1CCN(c2nccc(-c3c[nH]c4ncccc34)n2)CC1 [Cpd 62]
Result :: False

Query :: Hi there! Is IC50 for OCCc1ccc(Nc2nccc(-c3c[nH]c4ncccc34)n2)cc1 [Cpd 1] below 0.06 µM, do you know?
Result :: False

Query :: A record lists CC(=O)n1cc(-c2ccnc(NC3CCCCC3)n2)c2cccnc21 [Cpd 68] . Is its IC50 below 0.06 µM?
Result :: True

Query :: Problem: For the compound CN1CCN(CCc2ccc(Nc3nccc(-c4c[nH]c5ncccc45)n3)c(Cl)c2)CC1 [Cpd 55] , is IC50 under 0.06 µM?
Result :: False

Query :: hey, is IC50 for OCCc1ccc(Nc2nccc(-c3c[nH]c4ncccc34)n2)c(Cl)c1 [Cpd 52] lower than 0.06 µM or not?
Result :: False

Query :: Does COc1cc(Nc2nccc(-c3c[nH]c4ncccc34)n2)cc(OC)c1OC [Cpd 2] have IC50 strictly under 0.06 µM?
Result :: False

Query :: State whether 0.06 µM exceeds IC50 recorded for Cc1cc(CCO)ccc1Nc1nccc(-c2c[nH]c3ncccc23)n1 [Cpd 44] .
Result :: True

Query :: Could you please tell me whether IC50 recorded for c1ccc(Nc2nccc(-c3c[nH]c4ncccc34)n2)cc1 [Cpd 3] is less than 0.06 µM?
Result :: False

Query :: State whether 0.06 µM exceeds IC50 recorded for CCOc1ccc(Nc2nccc(-c3c[nH]c4ncccc34)n2)cc1 [Cpd 40] .
Result :: True

Query :: Just wondering, is IC50 of Cc1[nH]c2ncccc2c1-c1ccnc(N[C@H]2CC[C@H](N)CC2)n1 [Cpd 57] below 0.06 µM?
Result :: False

Query :: Does this compound meet the criterion IC50 < 0.06 µM? Cc1cc(CCN2CCCC2)ccc1Nc1nccc(-c2c[nH]c3ncccc23)n1 [Cpd 48]
Result :: True

Query :: # strict comparison: is reported IC50 < 0.06 µM? input = CS(=O)(=O)n1cc(-c2ccnc(NC3CCCCC3)n2)c2cccnc21 [Cpd 67]
Result :: False

Query :: hey, is IC50 for Cn1cc(-c2ccnc(NC3CCCCC3)n2)c2cccnc21 [Cpd 66] lower than 0.06 µM or not?
Result :: False

Query :: Below 0.06 µM on IC50? Entry CN1CCC(Nc2nccc(-c3c[nH]c4ncccc34)n2)CC1 [Cpd 61]
Result :: True

Query :: Dear colleague, could you confirm whether IC50 of CN1CCN(CCc2ccc(Nc3nccc(-c4c[nH]c5ncccc45)n3)cc2)CC1 [Cpd 21] falls below 0.06 µM? Thanks.
Result :: True

Query :: Does the reported IC50 of Cc1cc(CCN2CCCCC2)ccc1Nc1nccc(-c2c[nH]c3ncccc23)n1 [Cpd 50] stay below 0.06 µM?
Result :: True

Query :: In the record for c1cnc2[nH]cc(-c3ccnc(NC4CCNCC4)n3)c2c1 [Cpd 65] , is IC50 less than 0.06 µM?
Result :: True

Query :: Given CCN(CC)CCc1ccc(Nc2nccc(-c3c[nH]c4ncccc34)n2)cc1 [Cpd 24] , is recorded IC50 strictly lower than 0.06 µM?
Result :: True

Query :: Quick check: IC50 of COc1ccccc1Nc1nccc(-c2c[nH]c3ncccc23)n1 [Cpd 7] under 0.06 µM?
Result :: False

Query :: Hi there! Is IC50 for CCc1ccccc1Nc1nccc(-c2c[nH]c3ncccc23)n1 [Cpd 32] below 0.06 µM, do you know?
Result :: False

Query :: Quick check: does CN(C)CCn1cc(-c2ccnc(N[C@H]3CC[C@H](O)CC3)n2)c2cccnc21 [Cpd 74] have IC50 under 0.06 µM?
Result :: False

Query :: Hello, is IC50 of the following compound strictly smaller than 0.06 µM? c1cnc2[nH]cc(-c3ccnc(NC4CCCCC4)n3)c2c1 [Cpd 13]
Result :: True

Query :: For this compound, is IC50 lower than 0.06 µM? c1cnc2[nH]cc(-c3ccnc(Nc4ccc(CCN5CCNCC5)cc4)n3)c2c1 [Cpd 20]
Result :: False

Query :: Hello, is IC50 of the following compound strictly smaller than 0.06 µM? Oc1ccccc1Nc1nccc(-c2c[nH]c3ncccc23)n1 [Cpd 30]
Result :: False

Query :: Input CNCCc1ccc(Nc2nccc(-c3c[nH]c4ncccc34)n2)c(C)c1 [Cpd 45] ; condition: IC50 strictly below 0.06 µM. Does it hold?
Result :: True

* * *

Please go through the items and note down their IC50.
# target-or-test-system: Aurora-A (Mus musculus, UniProt P97477)
# Construct: made in house; host or cells: sf9 insect cells
# Sequence (P97477 1-395): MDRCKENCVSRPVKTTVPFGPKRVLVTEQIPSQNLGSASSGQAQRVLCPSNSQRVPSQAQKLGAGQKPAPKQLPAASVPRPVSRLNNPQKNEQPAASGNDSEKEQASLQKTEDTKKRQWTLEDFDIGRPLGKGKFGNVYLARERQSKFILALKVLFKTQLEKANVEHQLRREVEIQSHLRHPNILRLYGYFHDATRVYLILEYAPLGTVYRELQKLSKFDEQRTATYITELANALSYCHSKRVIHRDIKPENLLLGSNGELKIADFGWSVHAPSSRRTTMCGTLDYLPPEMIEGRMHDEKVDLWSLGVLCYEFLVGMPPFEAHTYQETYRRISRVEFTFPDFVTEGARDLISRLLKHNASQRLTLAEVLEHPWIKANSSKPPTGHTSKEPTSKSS
# test: Aurora-A Screening Assay
# Type: biochemical, murine
# test-context: 33P-γ-ATP incorporation, 10 μM ATP
Output spec: scalar in µM, unitless text.

Query :: Could you share which IC50 value was measured for OCCOc1ccc(Nc2nccc(-c3c[nH]c4ncccc34)n2)cc1 ?
Result :: 0.173

Query :: Tell me the measured IC50 of Cc1cc(Br)ccc1Nc1nccc(-c2c[nH]c3ncccc23)n1 , please.
Result :: 0.182

Query :: Tell me the measured IC50 of c1cnc2[nH]cc(-c3ccnc(Nc4ccc(CCN5CCOCC5)cc4)n3)c2c1 , please.
Result :: 0.173

Query :: Request the reported IC50 associated with Cc1ccccc1Nc1nccc(-c2c[nH]c3ncccc23)n1
Result :: 0.301

Query :: // lookup IC50 for CN1CCN(CCc2ccc(Nc3nccc(-c4c[nH]c5ncccc45)n3)c(Cl)c2)CC1
Result :: 0.785

Query :: # input molecule: Clc1cc(CCN2CCOCC2)ccc1Nc1nccc(-c2c[nH]c3ncccc23)n1 ; wanted: its IC50
Result :: 0.859

* * *

# target-or-test-system: Aurora-A (Mus musculus, UniProt P97477)
# Construct: made in house; host or cells: sf9 insect cells
# test: Aurora-A Screening Assay
# Type: biochemical, murine
# test-context: 33P-γ-ATP incorporation, 10 μM ATP
Mark rule met only when IC50 stays strictly below 0.2 µM. Values equal to the cut-off are rule not met.

Query :: Just wondering, is IC50 of c1cnc2[nH]cc(-c3ccnc(NC4CCCCCC4)n3)c2c1 below 0.2 µM?
Result :: rule met

Query :: Lab log: compare recorded IC50 with 0.2 µM; is it strictly lower for c1cnc2[nH]cc(-c3ccnc(Nc4ccc(CCN5CCCC5)cc4)n3)c2c1 ?
Result :: rule met

Query :: Hello, I'm reviewing records and need to know if IC50 of Cc1cccc(Nc2nccc(-c3c[nH]c4ncccc34)n2)c1 is below 0.2 µM. Could you check?
Result :: rule met

Query :: Criterion: IC50 strictly below 0.2 µM. Is it met by CN1CCC(Nc2nccc(-c3c[nH]c4ncccc34)n2)CC1 ?
Result :: rule not met

Query :: Hello, I'm reviewing records and need to know if IC50 of Clc1ccc(Nc2nccc(-c3c[nH]c4ncccc34)n2)c(Cl)c1 is below 0.2 µM. Could you check?
Result :: rule not met

Query :: Check if IC50 falls below 0.2 µM for c1cnc2[nH]cc(-c3ccnc(NC4CCCCC4)n3)c2c1 .
Result :: rule not met

Query :: Dear colleague, could you confirm whether IC50 of COc1cc(Nc2nccc(-c3c[nH]c4ncccc34)n2)cc(OC)c1OC falls below 0.2 µM? Thanks.
Result :: rule met
